Attribution: paper PMC11413451

target: human Slo3 (Homo sapiens, UniProt A8MYU2); construct: expressed in transfected cells; host or cells: CHO cells, transient co-transfection with pcDNA3.1(+) vectors; test: Whole-cell patch-clamp of Slo3 currents in CHO cells co-expressing human Slo3 and LRRC52; type: cell-based; settings: dose-response, Hill fit; mean ± SD; read-out: IC50 for inhibition of Slo3
Sequence (A8MYU2 whole entry): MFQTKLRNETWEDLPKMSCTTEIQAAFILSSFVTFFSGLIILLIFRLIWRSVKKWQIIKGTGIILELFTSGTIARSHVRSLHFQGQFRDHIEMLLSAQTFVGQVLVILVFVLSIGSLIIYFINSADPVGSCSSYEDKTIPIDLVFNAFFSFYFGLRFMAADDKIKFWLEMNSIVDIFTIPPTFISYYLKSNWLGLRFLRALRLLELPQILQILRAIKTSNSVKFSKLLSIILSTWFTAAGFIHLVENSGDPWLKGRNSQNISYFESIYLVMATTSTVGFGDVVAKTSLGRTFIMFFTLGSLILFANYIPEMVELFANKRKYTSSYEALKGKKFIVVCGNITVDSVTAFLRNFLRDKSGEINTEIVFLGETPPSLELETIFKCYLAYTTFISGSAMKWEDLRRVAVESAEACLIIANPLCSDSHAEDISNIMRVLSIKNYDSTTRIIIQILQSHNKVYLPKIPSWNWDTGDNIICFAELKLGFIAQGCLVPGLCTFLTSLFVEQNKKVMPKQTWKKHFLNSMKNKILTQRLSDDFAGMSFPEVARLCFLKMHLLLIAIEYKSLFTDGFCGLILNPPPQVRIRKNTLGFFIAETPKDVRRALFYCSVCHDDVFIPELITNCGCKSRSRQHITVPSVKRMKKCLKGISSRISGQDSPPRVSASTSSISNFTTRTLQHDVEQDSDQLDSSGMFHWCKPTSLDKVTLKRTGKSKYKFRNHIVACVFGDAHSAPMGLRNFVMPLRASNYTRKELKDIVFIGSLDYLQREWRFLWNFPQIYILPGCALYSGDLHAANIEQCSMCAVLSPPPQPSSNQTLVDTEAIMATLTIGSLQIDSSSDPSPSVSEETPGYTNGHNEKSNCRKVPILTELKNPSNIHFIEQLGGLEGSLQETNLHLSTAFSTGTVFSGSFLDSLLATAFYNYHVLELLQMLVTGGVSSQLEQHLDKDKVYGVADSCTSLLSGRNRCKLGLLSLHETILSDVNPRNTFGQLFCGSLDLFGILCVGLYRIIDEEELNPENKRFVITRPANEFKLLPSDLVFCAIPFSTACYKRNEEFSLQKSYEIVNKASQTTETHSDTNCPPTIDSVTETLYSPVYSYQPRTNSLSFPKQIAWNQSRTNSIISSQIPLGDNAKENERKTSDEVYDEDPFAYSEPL
Sequence (Q8N7C0 24-313 partner): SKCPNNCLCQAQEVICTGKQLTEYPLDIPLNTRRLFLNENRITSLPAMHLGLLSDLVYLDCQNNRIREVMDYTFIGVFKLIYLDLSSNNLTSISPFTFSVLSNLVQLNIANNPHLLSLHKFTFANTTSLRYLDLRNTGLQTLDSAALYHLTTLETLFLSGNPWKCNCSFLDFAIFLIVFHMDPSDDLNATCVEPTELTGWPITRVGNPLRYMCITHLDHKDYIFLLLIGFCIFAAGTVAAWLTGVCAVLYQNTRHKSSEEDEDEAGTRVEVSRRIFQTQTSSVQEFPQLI
In this section, each of the molecules is paired with its reported pIC50.
Worth noting: pIC50 values are minus log10 of concentrations stated in mol/L.

{"columns": ["Molecule", "pIC50"],
 "data": [
  ["C[C@]12C[C@H](O)[C@H]3[C@@H](CCC4=CC(=O)CC[C@@]43C)[C@@H]1CC[C@@H]2C(=O)CO [corticosterone]", 4.24]
]}

Assay human Slo3 (Homo sapiens, UniProt A8MYU2), sample CC(=O)C1(O)CCC2C3CCC4=CC(=O)CCC4(C)C3CCC21C (stereo not drawn) [17α-hydroxyprogesterone] , pIC50 read: 4.57

Noted pIC50 for CC(=O)[C@H]1CC[C@H]2[C@@H]3CCC4=CC(=O)CC[C@]4(C)[C@H]3CC[C@]12C [progesterone] , tested on human Slo3 (Homo sapiens, UniProt A8MYU2): 5.28
